Molecular target: HCMV polymerase (Human cytomegalovirus)
Construct: made in house; host or cells: recombinant baculovirus-infected SF-9 cells
Assay: biochemical
Details: modified SPA assay: compounds diluted in 100% DMSO, 4.5 mM DTT in polymerase buffer; read-out: polymerase IC50 (μM) HCMV
observed.property: IC50 (µM)

Below: 5 molecules and their reported IC50.
{"molecule": "CCN(CC)CCn1cc(C(=O)NCc2ccc(Cl)cc2)c(=O)c2cc(CCCO)sc21", "observed.property": "IC50", "value.measured": 0.81}
{"molecule": "O=C(NCc1ccc(Cl)cc1)c1cnc2sc(S(=O)(=O)N3CCOCC3)cc2c1O", "observed.property": "IC50", "value.measured": 15.9}
{"molecule": "O=C(NCc1ccc(Cl)cc1)c1cn(Cc2ccncc2)c2sc(CN3CCOCC3)cc2c1=O", "observed.property": "IC50", "value.measured": 5}
{"molecule": "Cn1cc(C(=O)NCc2ccc(Cl)cc2)c(=O)c2cc(C#CCO)sc21", "observed.property": "IC50", "value.measured": 1}
{"molecule": "CCn1cc(C(=O)NCc2ccc(Cl)cc2)c(=O)c2cc(CCCO)sc21", "observed.property": "IC50", "value.measured": 0.67}

P = O=C(NCc1ccc(Cl)cc1)c1cn(CC2CCCO2)c2sc(CN3CCOCC3)cc2c1=O (stereo not shown)
Q = CCn1cc(C(=O)NCc2ccc(Cl)cc2)c(=O)c2cc(Br)sc21
Hey, between P and Q which has a smaller measured IC50? Selection: enter the item's label. P
(P: 1.5 µM, Q: 18.8 µM)

====

Target: HCMV polymerase (Human cytomegalovirus, UniProt P08546)
Construct: made in house; host or cells: recombinant baculovirus-infected SF-9 cells
Sequence (P08546 whole entry): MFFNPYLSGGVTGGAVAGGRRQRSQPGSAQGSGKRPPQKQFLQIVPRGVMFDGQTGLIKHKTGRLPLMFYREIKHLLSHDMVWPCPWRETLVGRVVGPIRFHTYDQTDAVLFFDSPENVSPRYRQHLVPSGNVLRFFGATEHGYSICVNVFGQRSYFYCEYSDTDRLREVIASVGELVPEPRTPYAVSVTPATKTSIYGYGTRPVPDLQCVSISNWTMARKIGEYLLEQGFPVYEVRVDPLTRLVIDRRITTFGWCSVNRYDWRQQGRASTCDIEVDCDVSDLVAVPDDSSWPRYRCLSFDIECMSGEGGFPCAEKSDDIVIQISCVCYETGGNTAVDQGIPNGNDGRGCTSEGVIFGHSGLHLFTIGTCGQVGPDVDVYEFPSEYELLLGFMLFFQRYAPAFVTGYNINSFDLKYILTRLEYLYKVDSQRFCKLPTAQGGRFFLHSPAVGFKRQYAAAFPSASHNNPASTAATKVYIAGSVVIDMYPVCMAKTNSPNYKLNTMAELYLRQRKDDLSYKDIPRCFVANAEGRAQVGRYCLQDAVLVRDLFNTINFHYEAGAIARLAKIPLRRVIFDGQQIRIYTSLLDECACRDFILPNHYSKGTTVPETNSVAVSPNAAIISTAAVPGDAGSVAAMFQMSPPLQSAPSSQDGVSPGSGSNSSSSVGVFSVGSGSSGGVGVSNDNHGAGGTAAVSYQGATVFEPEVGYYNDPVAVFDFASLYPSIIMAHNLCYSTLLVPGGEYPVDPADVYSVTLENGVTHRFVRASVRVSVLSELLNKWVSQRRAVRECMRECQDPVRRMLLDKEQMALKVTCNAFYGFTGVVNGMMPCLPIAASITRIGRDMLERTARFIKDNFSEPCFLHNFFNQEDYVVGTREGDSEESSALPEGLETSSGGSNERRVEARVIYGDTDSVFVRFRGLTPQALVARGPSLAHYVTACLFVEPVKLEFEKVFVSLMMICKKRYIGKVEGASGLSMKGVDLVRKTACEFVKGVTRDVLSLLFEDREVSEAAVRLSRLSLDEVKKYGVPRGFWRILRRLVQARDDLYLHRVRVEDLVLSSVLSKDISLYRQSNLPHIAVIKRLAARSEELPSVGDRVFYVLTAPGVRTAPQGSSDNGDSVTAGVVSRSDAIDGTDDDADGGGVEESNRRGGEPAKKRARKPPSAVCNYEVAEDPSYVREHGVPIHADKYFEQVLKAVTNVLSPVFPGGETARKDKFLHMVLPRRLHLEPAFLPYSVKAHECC
Assay: biochemical
observed.property: IC50 (µM)
The reply should be a number in µM, with the unit left off.

Quick one: IC50 of O=C(NCc1ccc(Cl)cc1)c1cnc2sc(CN3CCOCC3)cc2c1O [Example 41] ? 3.4

====

observed.property: melting point

Below: 5 compounds and their reported melting point.
{"compound": "Cn1cc(C(=O)NCc2ccc(Cl)cc2)c(=O)c2cc(CO)sc21 [Example 35]", "melting point": "222 to 225 °C"}
{"compound": "CCn1cc(C(=O)NCc2ccc(Cl)cc2)c(=O)c2cc(C#CCOC(=O)c3cccc(CN4CCOCC4)c3)sc21 [Example 32]", "melting point": "147 to 150 °C"}
{"compound": "CCN(CC)CCn1cc(C(=O)NCc2ccc(Cl)cc2)c(=O)c2cc(CCCO)sc21 [Example 22]", "melting point": "111 to 114 °C"}
{"compound": "CCCn1cc(C(=O)NCc2ccc(Cl)cc2)c(=O)c2cc(CN3CCOCC3)sc21 [Example 43]", "melting point": "174 to 176 °C"}
{"compound": "O=C(NCc1ccc(Cl)cc1)c1cn(Cc2cccc(F)c2)c2sc(CN3CCOCC3)cc2c1=O [Example 50]", "melting point": "214 to 215 °C"}

Quick one: melting point of COC(=O)C(CC#Cc1cc2c(O)c(C(=O)NCc3ccc(Cl)cc3)cnc2s1)C(=O)OC [Example 10] ? 197 to 198 °C

Quick one: melting point of Cn1cc(C(=O)NCc2ccc(Cl)cc2)c(=O)c2cc(I)sc21 [Example 23] ? 236 to 237 °C

====

Target: VZV polymerase (Varicella-zoster virus, UniProt P09252)
Sequence (P09252 whole entry): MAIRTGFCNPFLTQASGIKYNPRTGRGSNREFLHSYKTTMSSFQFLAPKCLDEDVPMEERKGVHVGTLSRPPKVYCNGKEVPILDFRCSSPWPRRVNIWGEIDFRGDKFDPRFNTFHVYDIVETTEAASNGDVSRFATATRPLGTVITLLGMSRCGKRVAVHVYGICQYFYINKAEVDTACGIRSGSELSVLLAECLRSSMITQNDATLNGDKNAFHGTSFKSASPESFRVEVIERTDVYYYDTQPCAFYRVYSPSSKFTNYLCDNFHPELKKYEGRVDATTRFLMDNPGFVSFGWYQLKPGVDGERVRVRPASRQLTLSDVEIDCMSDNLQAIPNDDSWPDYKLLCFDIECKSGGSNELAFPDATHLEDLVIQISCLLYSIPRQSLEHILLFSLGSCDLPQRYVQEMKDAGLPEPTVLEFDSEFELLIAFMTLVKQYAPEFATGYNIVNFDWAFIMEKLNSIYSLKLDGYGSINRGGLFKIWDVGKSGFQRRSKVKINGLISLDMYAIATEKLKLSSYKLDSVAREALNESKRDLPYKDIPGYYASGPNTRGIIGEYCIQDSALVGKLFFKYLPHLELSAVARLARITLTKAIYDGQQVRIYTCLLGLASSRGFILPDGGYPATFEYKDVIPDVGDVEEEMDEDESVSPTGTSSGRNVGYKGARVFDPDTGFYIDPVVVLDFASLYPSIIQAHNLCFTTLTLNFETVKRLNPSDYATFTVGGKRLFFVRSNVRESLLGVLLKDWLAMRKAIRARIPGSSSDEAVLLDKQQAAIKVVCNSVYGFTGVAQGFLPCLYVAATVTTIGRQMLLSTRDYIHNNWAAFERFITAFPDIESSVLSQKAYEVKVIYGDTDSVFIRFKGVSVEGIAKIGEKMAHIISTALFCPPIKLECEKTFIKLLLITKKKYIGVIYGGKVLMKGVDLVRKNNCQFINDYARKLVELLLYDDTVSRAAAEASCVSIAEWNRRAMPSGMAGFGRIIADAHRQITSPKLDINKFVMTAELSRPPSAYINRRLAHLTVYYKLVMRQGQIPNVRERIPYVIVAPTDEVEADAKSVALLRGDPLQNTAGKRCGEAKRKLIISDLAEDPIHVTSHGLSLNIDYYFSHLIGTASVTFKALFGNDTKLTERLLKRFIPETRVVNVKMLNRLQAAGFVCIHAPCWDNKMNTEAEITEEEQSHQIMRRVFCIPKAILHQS
Assay: biochemical
observed.property: IC50 (µM)
The reply should be a number in µM, with the unit left off.

Quick one: IC50 of Cn1cc(C(=O)NCc2ccc(Cl)cc2)c(=O)c2cc(CCCO)sc21 [Example 25] ? 0.46

====

Biological target: HCMV polymerase (Human cytomegalovirus)
Construct: made in house; host or cells: recombinant baculovirus-infected SF-9 cells
Assay: biochemical
Conditions: modified SPA assay: compounds diluted in 100% DMSO, 4.5 mM DTT in polymerase buffer; read-out: polymerase IC50 (μM) HCMV
observed.property: IC50 (µM)

{"molecule": "O=C(NCc1ccc(Cl)cc1)c1cnc2sc(CCCO)cc2c1O [Example 8]", "IC50 / µM": 2.2}

A = N#Cc1cc2c(O)c(C(=O)NCc3ccc(Cl)cc3)cnc2s1 [Example 9]
B = CCn1cc(C(=O)NCc2ccc(Cl)cc2)c(=O)c2cc(CCCCO)sc21 [Example 20]
C = CC(C)n1cc(C(=O)NCc2ccc(Cl)cc2)c(=O)c2cc(CN3CCOCC3)sc21 [Example 44]
D = O=C(NCc1ccc(Cl)cc1)c1cnc2sc(C#CCO)cc2c1O [Example 5]
With regard to IC50, arrange the entries in ascending order, please. Response field: labels, in requested order. B, D, C, A
(B: 0.18 µM, D: 2.5 µM, C: 4.7 µM, A: 12.5 µM)

====

Molecular target: HCMV polymerase (Human cytomegalovirus, UniProt P08546)
Construct: made in house; host or cells: recombinant baculovirus-infected SF-9 cells
Assay: biochemical
Conditions: modified SPA assay: compounds diluted in 100% DMSO, 4.5 mM DTT in polymerase buffer; read-out: polymerase IC50 (μM) HCMV
Counter-ions that a name gives are not always drawn.
observed.property: IC50 (µM)

Below: 3 compounds and their reported IC50.
{"compound": "CCn1cc(C(=O)NCc2ccc(Cl)cc2)c(=O)c2cc(C#CCOC(=O)C(N)C(C)C)sc21 (centres unmarked) [Example 31, Hydrochloride]", "measurement.unit": "µM", "IC50": 15.4}
{"compound": "CCCn1cc(C(=O)NCc2ccc(Cl)cc2)c(=O)c2cc(CN3CCOCC3)sc21", "measurement.unit": "µM", "IC50": 1.9}
{"compound": "O=C(NCc1ccc(Cl)cc1)c1cnc2sccc2c1O", "measurement.unit": "µM", "IC50": 28.9}

a = CCn1cc(C(=O)NCc2ccc(Cl)cc2)c(=O)c2cc(C#CCCO)sc21
b = CCn1cc(C(=O)NCc2ccc(Cl)cc2)c(=O)c2cc(C#CCOC(=O)CN3CCOCC3)sc21
c = Cn1cc(C(=O)NCc2ccc(F)cc2)c(=O)c2cc(CN3CCOCC3)sc21
d = CC(C)n1cc(C(=O)NCc2ccc(Cl)cc2)c(=O)c2cc(I)sc21
With regard to IC50, arrange the entries in ascending order, please. Response field: labels, in requested order. c, a, d, b
(c: 2.6 µM, a: 4.7 µM, d: 14.2 µM, b: 28.2 µM)

====

Biological target: HCMV polymerase (Human cytomegalovirus)
Construct: made in house; host or cells: recombinant baculovirus-infected SF-9 cells
Assay: biochemical
Conditions: modified SPA assay: compounds diluted in 100% DMSO, 4.5 mM DTT in polymerase buffer; read-out: polymerase IC50 (μM) HCMV
observed.property: IC50 (µM)

Below: 3 molecules and their reported IC50.
{"molecular.string": "CCn1cc(C(=O)NCc2ccc(Cl)cc2)c(=O)c2cc(I)sc21", "tested.system": "HCMV polymerase (Human cytomegalovirus)", "value.measured": 9}
{"molecular.string": "O=C(NCc1ccc(Cl)cc1)c1cn(CCCc2ccccc2)c2sc(CN3CCOCC3)cc2c1=O", "tested.system": "HCMV polymerase (Human cytomegalovirus)", "value.measured": 1.2}
{"molecular.string": "O=C(NCc1ccc(Cl)cc1)c1cnc2sc(I)cc2c1O", "tested.system": "HCMV polymerase (Human cytomegalovirus)", "value.measured": 6.3}

A = Cn1cc(C(=O)NCc2ccc(Cl)cc2)c(=O)c2cc(CO)sc21
B = CCn1cc(C(=O)NCc2ccc(Cl)cc2)c(=O)c2cc(CN3CCOCC3)sc21
Hey, between A and B which has a smaller measured IC50? Selection: enter the item's label. B
(B: 1.9 µM, A: 18.5 µM)

====

observed.property: melting point

Below: 5 compounds and their reported melting point.
{"compound": "CCn1cc(C(=O)NCc2ccc(Cl)cc2)c(=O)c2cc(CCCO)sc21", "melting point": "144 to 146 °C"}
{"compound": "O=C(NCc1ccc(Cl)cc1)c1cnc2sc(Br)cc2c1O", "melting point": "234 to 236 °C"}
{"compound": "O=C(NCc1ccc(Cl)cc1)c1cn(CCCc2ccccc2)c2sc(CN3CCOCC3)cc2c1=O", "melting point": "169 to 171 °C"}
{"compound": "O=C(NCc1ccc(Cl)cc1)c1cnc2sc(C#CCO)cc2c1O", "melting point": "233 to 236 °C"}
{"compound": "O=C(NCc1ccc(Cl)cc1)c1cn(Cc2ccccc2)c2sc(CN3CCOCC3)cc2c1=O", "melting point": "225 to 226.5 °C"}

Quick one: melting point of `Cn1cc(C(=O)NCc2ccc(F)cc2)c(=O)c2cc(CN3CCOCC3)sc21` ? 214 to 216 °C

Quick one: melting point of `CC(C)n1cc(C(=O)NCc2ccc(Cl)cc2)c(=O)c2cc(CN3CCOCC3)sc21` ? 191 to 195 °C

Quick one: melting point of `Cn1cc(C(=O)NCc2ccc(Br)cc2)c(=O)c2cc(CN3CCOCC3)sc21` ? 245 to 246 °C

Quick one: melting point of `CCn1cc(C(=O)NCc2ccc(Cl)cc2)c(=O)c2cc(C#CCOC(=O)CCC(=O)O)sc21` ? 180 to 182 °C

Quick one: melting point of `O=C(NCc1ccc(Cl)cc1)c1cnc2sc(S(=O)(=O)N3CCOCC3)cc2c1O` ? > 300 °C

Quick one: melting point of CN(Cc1cc2c(=O)c(C(=O)NCc3ccc(Cl)cc3)cn(C)c2s1)CC(O)c1ccccc1 (centres unmarked) ? 184 to 187 °C

Quick one: melting point of `CC(C)n1cc(C(=O)NCc2ccc(Cl)cc2)c(=O)c2cc(CCCO)sc21` ? 84 to 92 °C

Quick one: melting point of `O=C(NCc1ccc(Cl)cc1)c1cn(Cc2ccncc2)c2sc(CN3CCOCC3)cc2c1=O` ? 208 to 210 °C (dec.)

Quick one: melting point of O=C(NCc1ccc(Cl)cc1)c1cn(CC2CCCO2)c2sc(CN3CCOCC3)cc2c1=O (centres unmarked) ? 191 to 195 °C

Quick one: melting point of `CCn1cc(C(=O)NCc2ccc(Cl)cc2)c(=O)c2ccsc21` ? 183 to 184 °C

Quick one: melting point of `COCC#Cc1cc2c(O)c(C(=O)NCc3ccc(Cl)cc3)cnc2s1` ? 215 to 218 °C

Quick one: melting point of `O=C(NCc1ccc(Cl)cc1)c1cnc2sc(C(=O)N3CCOCC3)cc2c1O` ? 217 to 219 °C

Quick one: melting point of `CC(C)n1cc(C(=O)NCc2ccc(Cl)cc2)c(=O)c2cc(I)sc21` ? 173 to 180 °C
